# assayed-target: T1, Pex13, P80667
# T1 sequence (P80667 295-386, looked up): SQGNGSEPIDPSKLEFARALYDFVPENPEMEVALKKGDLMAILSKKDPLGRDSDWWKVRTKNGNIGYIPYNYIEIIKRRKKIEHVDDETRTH
# assay-notes: SPOT array
# experimental-parameters: median of control spots 1341
observed-property: SPOT intensity

Would you please look over these solved cases?
binder	SPOT intensity
TKHKAPPPPPPTAET	0
QTMRQAPKRPDADVA	73

a = PALPSLPPPPLLNVD
b = VATSTSPKLPPRGKQ
Given the listed items, does a or b have the lesser reported SPOT intensity? In your reply, give the label of the chosen option.
a
